The origin of these recorded values is patent US10800791B2.

pIC50 for assorted compounds
Target: human (hACC2) (Homo sapiens)
Sequence (O00763 whole entry): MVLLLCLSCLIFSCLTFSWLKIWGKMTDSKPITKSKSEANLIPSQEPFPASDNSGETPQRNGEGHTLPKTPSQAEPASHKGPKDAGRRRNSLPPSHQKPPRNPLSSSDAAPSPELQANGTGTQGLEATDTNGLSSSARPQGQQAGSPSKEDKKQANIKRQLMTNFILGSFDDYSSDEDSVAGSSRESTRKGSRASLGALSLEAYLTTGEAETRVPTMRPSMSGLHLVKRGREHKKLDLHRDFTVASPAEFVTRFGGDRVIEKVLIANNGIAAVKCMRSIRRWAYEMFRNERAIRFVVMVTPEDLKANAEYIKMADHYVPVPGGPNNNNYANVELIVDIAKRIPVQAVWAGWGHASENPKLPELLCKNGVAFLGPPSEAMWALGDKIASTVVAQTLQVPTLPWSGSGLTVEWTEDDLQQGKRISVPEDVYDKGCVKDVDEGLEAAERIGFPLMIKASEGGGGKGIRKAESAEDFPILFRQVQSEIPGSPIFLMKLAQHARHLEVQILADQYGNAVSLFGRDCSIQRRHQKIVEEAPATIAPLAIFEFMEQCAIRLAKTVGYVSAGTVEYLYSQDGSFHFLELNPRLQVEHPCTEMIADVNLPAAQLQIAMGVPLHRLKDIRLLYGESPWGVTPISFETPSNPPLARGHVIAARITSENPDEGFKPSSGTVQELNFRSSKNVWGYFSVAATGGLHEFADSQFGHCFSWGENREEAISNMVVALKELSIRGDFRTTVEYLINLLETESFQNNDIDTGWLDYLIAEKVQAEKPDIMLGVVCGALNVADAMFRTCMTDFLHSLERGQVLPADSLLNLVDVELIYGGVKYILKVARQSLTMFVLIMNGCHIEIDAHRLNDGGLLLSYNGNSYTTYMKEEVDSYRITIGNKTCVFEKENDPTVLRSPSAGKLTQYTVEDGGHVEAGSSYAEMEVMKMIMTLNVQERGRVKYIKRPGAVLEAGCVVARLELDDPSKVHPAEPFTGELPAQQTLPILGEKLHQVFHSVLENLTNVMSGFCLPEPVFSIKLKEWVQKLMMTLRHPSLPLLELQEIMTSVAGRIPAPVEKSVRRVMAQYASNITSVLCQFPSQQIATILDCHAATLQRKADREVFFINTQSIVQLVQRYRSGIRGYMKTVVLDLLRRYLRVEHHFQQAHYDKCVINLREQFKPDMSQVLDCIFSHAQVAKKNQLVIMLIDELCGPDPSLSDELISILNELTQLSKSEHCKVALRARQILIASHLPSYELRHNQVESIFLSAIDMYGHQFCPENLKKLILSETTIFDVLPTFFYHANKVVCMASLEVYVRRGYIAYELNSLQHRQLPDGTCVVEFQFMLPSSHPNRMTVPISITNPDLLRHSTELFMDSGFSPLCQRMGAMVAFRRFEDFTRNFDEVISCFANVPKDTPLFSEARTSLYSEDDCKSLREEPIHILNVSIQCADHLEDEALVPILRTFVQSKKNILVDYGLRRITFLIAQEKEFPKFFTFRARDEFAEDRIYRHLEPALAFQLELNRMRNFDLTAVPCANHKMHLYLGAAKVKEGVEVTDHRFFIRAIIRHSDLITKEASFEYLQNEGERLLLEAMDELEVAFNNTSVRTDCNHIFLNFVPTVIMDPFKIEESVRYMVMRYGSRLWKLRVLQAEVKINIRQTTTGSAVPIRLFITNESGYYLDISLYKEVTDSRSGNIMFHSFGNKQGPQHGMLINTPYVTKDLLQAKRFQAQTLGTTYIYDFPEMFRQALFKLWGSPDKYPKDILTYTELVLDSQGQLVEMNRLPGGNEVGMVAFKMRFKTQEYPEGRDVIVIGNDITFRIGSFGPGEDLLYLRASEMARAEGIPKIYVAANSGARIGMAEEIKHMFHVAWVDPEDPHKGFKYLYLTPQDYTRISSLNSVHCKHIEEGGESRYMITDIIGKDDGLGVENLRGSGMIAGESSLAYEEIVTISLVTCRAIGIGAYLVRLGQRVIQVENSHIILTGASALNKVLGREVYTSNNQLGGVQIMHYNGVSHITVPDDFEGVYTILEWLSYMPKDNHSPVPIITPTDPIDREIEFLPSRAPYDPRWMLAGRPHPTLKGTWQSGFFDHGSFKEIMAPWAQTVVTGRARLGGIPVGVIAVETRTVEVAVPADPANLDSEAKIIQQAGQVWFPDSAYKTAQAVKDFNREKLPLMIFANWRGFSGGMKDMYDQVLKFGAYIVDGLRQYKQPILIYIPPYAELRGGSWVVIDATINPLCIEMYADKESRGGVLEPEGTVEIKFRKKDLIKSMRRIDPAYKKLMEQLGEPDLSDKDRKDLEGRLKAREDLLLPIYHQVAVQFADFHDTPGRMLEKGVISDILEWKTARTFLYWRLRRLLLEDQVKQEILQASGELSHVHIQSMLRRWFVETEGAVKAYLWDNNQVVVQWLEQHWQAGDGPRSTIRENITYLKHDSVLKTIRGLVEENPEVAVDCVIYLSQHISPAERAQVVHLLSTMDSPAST
Assay: In vitro ACC inhibition assay (ADP-Glo), hACC2
Type: biochemical
Settings: Table 2b, additional results, 5 nM ACC2, 20 μM ATP, 20 μM acetyl-CoA
pIC50: −log10 of the molar value.
Parameter: pIC50

>>> df
                                   compound  parameter     obs_value
0  COc1ccc(F)cc1[C@H](Cn1c(=O)n(C(C)(C)C(=O)NC(C)C)c(=O)c2c(C)c(-n3nccn3)sc21)OCCC(O)CO (stereo partly shown)      pIC50  7.40 to 8.00
1  COc1ccc(F)cc1[C@H](Cn1c(=O)n([C@H](C)C(=O)NC(C)C)c(=O)c2c(C)c(-n3nccn3)sc21)OC(C)C      pIC50  8.00 to 8.30
2  COc1ccc(F)cc1[C@H](Cn1c(=O)n(C(C)(C)C(=O)NC(C)C)c(=O)c2c(C)c(-n3nccn3)sc21)O[C@H]1CC[C@H](C(=O)O)CC1      pIC50  7.40 to 8.00
3  COc1ccc(F)cc1[C@H](Cn1c(=O)n(C(C)(C)C(=O)NC(C)C)c(=O)c2c(C)c(-n3nccn3)sc21)OC[C@@H](C)C#N      pIC50  8.30 to 9.00
